- System: CAKI-1 renal
- assay.text: NCI-60 one-dose screen, 48 h (100 = growth as untreated, 0 = no growth, -100 = all killed)
- measurement.context: 10 µM unless noted
Compounds without any hit were thinned out: in the full panel of roughly 83,000, 20% have a hit.
Values of growth strictly less than 80% map to 1, and values of at least 80% map to 0.

- molecule: "COc1ccc(/C=C2\\COc3ccc(O)cc3C2=O)cc1"
  cat: 0
- molecule: "C=CCOC(=O)C1=C(C)N(CC)C(=O)NC1c1c(Cl)n(C)c2ccccc12 (stereo not given)"
  cat: 1
- molecule: "Cc1cccc(-c2nc(Nc3ccc4ncsc4c3)c3ccccc3n2)n1"
  cat: 0

====

- Tested on: IGROV1 ovarian
- assay.text: NCI-60 one-dose screen, 48 h
- measurement.context: 10 µM unless noted
Compounds without any hit were thinned out: in the full panel of roughly 83,000, 20% have a hit. Active and inactive are the calls of the source. Rule for the calls: active = growth percent below 10; inactive = the rest.
Outcome codes: Yes for active, No for inactive

- molecule: "CC(=O)c1sc2sc(C(C)=O)c(C)c2c1C"
  cat: "No"
- molecule: "COc1cccc(/C=C/C(=O)c2cccc(Nc3nc(Nc4ccccc4)nc(Nc4ccccc4)n3)c2)c1"
  cat: "No"
- molecule: "CC(C)=CCNc1ncnc2c1ncn2C1OC(CO)C(O)C1O (centres undefined)"
  cat: "Yes"
- molecule: "O=C(/C=C/c1ccc(Cl)cc1)c1cccc(OCCCOc2cccc(C(=O)/C=C/c3ccc(Cl)cc3)c2)c1"
  cat: "No"
- molecule: "CCOC(=O)c1cc(C(=O)c2cc(OC)c(OC)c(OC)c2)n2ccccc12"
  cat: "No"
- molecule: "O=C(O)[C@@H](Cc1ccc2ccccc2c1)NC(=O)n1c2ccccc2c2ccccc21"
  cat: "No"
- molecule: "Cn1cc(-c2nn3cc(-c4cccs4)nc3s2)c2cc(F)ccc21"
  cat: "No"
- molecule: "COc1cc(/C=C/C(=O)c2ccc(-n3cc(CN4CCN(c5cc6c(cc5F)c(=O)c(C(=O)O)cn6C5CC5)CC4)nn3)cc2)ccc1O"
  cat: "No"
- molecule: "Cc1cccc(-c2nc(Nc3ccc4ncsc4c3)c3ccccc3n2)n1"
  cat: "No"
- molecule: "Cc1ccc(-c2nc(-c3cn(C)c4ncccc34)cs2)cc1"
  cat: "Yes"
- molecule: "Cc1ccc2nc(/C(C#N)=C(/CCCO)NC(Cc3ccccc3)C(=O)OCc3ccccc3)[nH]c(=O)c2c1 (centres undefined)"
  cat: "No"
- molecule: "C=C(CNCCO)[C@@H]1CC[C@]2(CO)CC[C@]3(C)[C@H](CC[C@@H]4[C@@]5(C)CCC(N)C(C)(C)[C@@H]5CC[C@]43C)[C@@H]12 (some centres undefined)"
  cat: "No"
- molecule: "C=C1C(=O)O[C@H]2[C@H]1CC/C(COC(=O)/C=C\\C(=O)NCc1ccc(Cn3c(=O)sn(CCCl)c3=O)cc1)=C\\CC[C@@]1(C)O[C@@H]21"
  cat: "No"
- molecule: "CCOC(=O)c1cnc2c(N=Nc3ccc(OC)cc3)c(N)nn2c1N"
  cat: "No"
- molecule: "C/C(=N\\O)c1ccc(NC(=O)CSc2nnc(-c3cc(-c4ccc(S(C)(=O)=O)cc4)nc4ccccc34)n2-c2ccccc2)cc1"
  cat: "No"
- molecule: "O=C1/C(=C/c2ccccc2F)CN(C(=O)C(Cl)Cl)C/C1=C\\c1ccccc1F"
  cat: "Yes"
- molecule: "CCN(CC)CCCOc1ccc2ncnc(Nc3ccc(Oc4cccc(C(F)(F)F)c4)c(Cl)c3)c2c1"
  cat: "Yes"
- molecule: "CCNC(=O)Oc1ccc(/C(=C(/CC)Cc2ccccc2)c2ccc(OCCN3CCCC3)cc2)cc1"
  cat: "No"
- molecule: "Cc1nc2ccccc2c(/C=C/c2ccccc2)c1C(=O)/C=C/c1ccccc1"
  cat: "No"

====

- System: NCI-H460 lung
- assay.text: NCI-60 one-dose screen, 48 h (100 = growth as untreated, 0 = no growth, -100 = all killed)
- measurement.context: 10 µM unless noted
- Method: Growth inhibition of the NCI-H460 human Non-Small Cell Lung tumor cell line is measured as a screen for anti-cancer activity. Cells are grown in 96 well plates and exposed to the test compound for 48 hours. Compounds are tested at a single concentration, which is 10^-5 M for most compounds. The reported endpoint is percent growth (GI% or GIPRCNT), where numbers from 0 - 100% represent growth inhibition, and numbers from -100% - 0 represent cell death. […]
The panel holds about 83,000 compounds, 20% with a hit somewhere; the sample as a whole holds those more often. Active and inactive are the calls of the source. How the source made its calls: active means growth percent below 10; inactive means the rest.

- compound: "Cc1ccc(-c2nc(/C=C3/C(=O)Nc4ccc(F)cc43)c3ccccn23)cc1"
  growth: "36% (inactive)"
- compound: "C=C(C)[C@@H]1CC[C@]2(COC(C)=O)CC[C@]3(C)[C@H](CC[C@@H]4[C@@]5(C)CCCN(C(C)=O)C(C)(C)[C@@H]5CC[C@]43C)[C@@H]12"
  growth: "0.0182% (active)"
- compound: "C=CC(=O)Nc1ccc(Nc2nccc(-c3ccc(N4CCCC4)c(C#N)c3)n2)cc1"
  growth: "0.189% (active)"
- compound: "O=S(=O)(Oc1ccc(Br)cc1)c1ccc(Cl)cc1"
  growth: "110% (inactive)"
- compound: "CN1CCN(Cc2ccc(NC(=O)c3cncc(C#Cc4cnc(N)c5ccc(F)cc45)c3)cc2C(F)(F)F)CC1"
  growth: "-15.9% (active)"
- compound: "O=C(Nc1ccccc1[N+](=O)[O-])c1ccc(Cl)c(Cl)c1"
  growth: "93.4% (inactive)"
- compound: "COc1ccc(C2=CN3CC=CC3CC2=O)cc1 (centres undefined)"
  growth: "106% (inactive)"
- compound: "CN(C)CCCC1(c2ccc(F)cc2)OCc2cc(-c3cc4ccccc4s3)ccc21 (centres undefined)"
  growth: "-78.1% (active)"
- compound: "CCCCNc1cc(-c2cn[nH]c2-c2cc(C)cc(OC)c2)nc(-c2cccnc2)n1"
  growth: "99.7% (inactive)"
- compound: "O=C(CN1CCCCCC1)Nc1nc2ccc(NCc3ccc(Cl)cc3)cc2s1"
  growth: "97% (inactive)"
- compound: "CCNc1nc(O)c(/C=C2\\C=Nc3ncccc32)s1"
  growth: "2.41% (active)"
- compound: "CCCCNC(=O)c1cc([N+](=O)[O-])cc(C2CCCCC2)c1O"
  growth: "30% (inactive)"
- compound: "N=C(N)c1ccc(-c2ccc(-c3ccccc3)s2)cc1"
  growth: "-16.6% (active)"
- compound: "CN1CCN(Cc2ccc(NC(=O)c3cncc(C#Cc4cnc5ccc(Cl)nn45)c3)cc2C(F)(F)F)CC1"
  growth: "-47.3% (active)"
- compound: "C=C(C)[C@@H]1CCC[C@]2(C(=O)N3CCN(C)CC3)CC[C@]3(C)[C@@H](CC[C@@H]4[C@@]5(C)CC/C(=N\\NC(=O)c6ccncc6)C(C)(C)[C@@H]5CC[C@]43C)[C@@H]12"
  growth: "88% (inactive)"
- compound: "CC1=C(C(=O)Nc2ccccc2)C(c2ccc3c(c2)OCO3)NC(=S)N1 (centres undefined)"
  growth: "113% (inactive)"
- compound: "C[C@]1(O)CC(=O)[C@]2(O)C3=C(C=C[C@]2(O)C1)C(=O)c1c(O)cccc1C3=O"
  growth: "74.9% (inactive)"
- compound: "O=C1/C=C/[C@@H](O)[C@@H]2C[C@@H](O)C[C@H]2/C=C/CCC[C@H](CCO)O1"
  growth: "15.9% (inactive)"
- compound: "C=C1C(=O)O[C@H]2[C@H]1CC/C(COC(=O)c1cc3cc(Cl)ccc3[nH]1)=C\\CC[C@@]1(C)O[C@@H]21"
  growth: "6.97% (active)"

====

- Test system: SK-MEL-2 melanoma
- assay.text: NCI-60 one-dose screen, 48 h (100 = growth as untreated, 0 = no growth, -100 = all killed)
- measurement.context: 10 µM unless noted
The panel holds about 83,000 compounds, 20% with a hit somewhere; the sample as a whole holds those more often.
Labels assigned by growth range: label 0 (below 30%), label 1 (30% to below 90%), label 2 (90% or more)

- compound: "C#Cc1cccc(Nc2nc(C)nc3cc(NC(=O)CCl)ccc23)c1"
  cat: "label 0"
- compound: "COc1cc2c(c(OC)c1OC)C(=O)CC(c1cccc(NC(=O)c3ccc(C#N)cc3)c1)O2 (centres undefined)"
  cat: "label 1"
- compound: "CC(C)(C)n1cc(-c2ccnc(NCCCNS(=O)(=O)c3ccc(C(F)(F)F)cc3)c2)c(-c2cccc(F)c2)n1"
  cat: "label 2"
- compound: "CCN(CC)CCCOc1ccc2ncnc(Nc3ccc(Oc4cccc(C(F)(F)F)c4)c(Cl)c3)c2c1"
  cat: "label 0"
- compound: "CC1=CCC(OC(=O)C(C)(C)CC(O)(C(C)O)C(O)C2(C)C=CC(Cc3ccc(C(C)C)cc3)(C(C)C)CC2)(C(C)C)CC1 (centres undefined)"
  cat: "label 2"
- compound: "CN(C)c1ccc(-c2ccc3c(c2)c(-c2ccccc2)nc(=O)n3C)cn1"
  cat: "label 0"
- compound: "O=C(CCCCCCN1CC(=O)N2[C@H](c3ccc(Br)cc3)c3[nH]c4ccccc4c3C[C@@H]2C1=O)NO"
  cat: "label 1"

Hello, the source for this data is PubChem BioAssay (NCI), in case you need it.
